runDescription: Solubility of compound of SEQ ID NO:9 in the presence of Zn(II) / Zn adduct
Assay type: physicochemical
conditionDetails: aqueous buffer; pH 6.8, 50 mM phosphate buffer, 25° C., excess EDTA
Where a SMILES comes first, the peptide text is derived from it. [ ]: non-standard residue; d: D form. Ala(6-(2-MePh)pyridin-3-yl) = Cc1ccccc1-c1ccc(C[C@H](N)C(=O)O)cn1; Bip(2'-Et-4'-OMe) = CCc1cc(OC)ccc1-c1ccc(C[C@H](N)C(=O)O)cc1; αMePhe(2-F) = C[C@](N)(Cc1ccccc1F)C(=O)O; Aib = CC(C)(N)C(=O)O

molecule | solubility thermodynamic (µg/mL)
CCc1cc(OC)ccc1-c1ccc(C[C@H](NC(=O)[C@H](CC(=O)O)NC(=O)[C@H](CO)NC(=O)[C@@H](NC(=O)[C@](C)(Cc2ccccc2F)NC(=O)[C@@H](NC(=O)CNC(=O)[C@H](CCC(=O)O)NC(=O)C(C)(C)NC(=O)[C@@H](N)Cc2c[nH]cn2)[C@@H](C)O)[C@@H](C)O)C(=O)N[C@@H](Cc2ccc(-c3ccccc3C)nc2)C(N)=O)cc1 [SEQ ID NO: 9] (H-H[Aib]EGT[αMePhe(2-F)]TSD[Bip(2'-Et-4'-OMe)][Ala(6-(2-MePh)pyridin-3-yl)]-NH2) | 18

---

runDescription: Dog pharmacokinetic study (iv and sc, solution vehicles)
Type: in vivo
conditionDetails: male, beagle, dog, plasma, sc, 67 ug/kg; Table II; vehicle propylene glycol/pH 7.4 phosphate buffer (1:1); read-out: Exposure in dogs (sc@67 μg/kg)
Where a SMILES comes first, the peptide text is derived from it. [ ]: non-standard residue; d: D form. The star is where a group is joined. Ala(6-(2-MePh)pyridin-3-yl) = Cc1ccccc1-c1ccc(C[C@H](N)C(=O)O)cn1; Bip(2'-Et-4'-OMe) = CCc1cc(OC)ccc1-c1ccc(C[C@H](N)C(=O)O)cc1; αMePhe(2,6-F2) = C[C@](N)(Cc1c(F)cccc1F)C(=O)O; αMeP = C[C@@]1(C(=O)O)CCCN1; Moc = COC(=O)*
resultType: AUC

compound | assayValue
CCc1cc(OC)ccc1-c1ccc(C[C@H](NC(=O)[C@H](CC(=O)O)NC(=O)[C@H](CO)NC(=O)[C@@H](NC(=O)[C@](C)(Cc2c(F)cccc2F)NC(=O)[C@@H](NC(=O)CNC(=O)[C@H](CCC(=O)O)NC(=O)[C@]2(C)CCCN2C(=O)[C@H](Cc2c[nH]cn2)NC(=O)OC)[C@@H](C)O)[C@@H](C)O)C(=O)N[C@@H](Cc2ccc(-c3ccccc3C)nc2)C(N)=O)cc1 [SEQ ID NO: 140] (Moc-H[αMeP]EGT[αMePhe(2,6-F2)]TSD[Bip(2'-Et-4'-OMe)][Ala(6-(2-MePh)pyridin-3-yl)]-NH2) | 0.283 µM·h

---

runDescription: Dog pharmacokinetic study (iv and sc, solution vehicles)
Assay type: in vivo
conditionDetails: male, beagle, dog, plasma, sc, 67 ug/kg; Table II; vehicle propylene glycol/pH 7.4 phosphate buffer (1:1); read-out: Exposure in dogs (sc@67 μg/kg)
Where a SMILES comes first, the peptide text is derived from it. [ ]: non-standard residue; d: D form. The star is where a group is joined. ξ: configuration not given here. Ala(6-(2-MePh)pyridin-3-yl) = Cc1ccccc1-c1ccc(C[C@H](N)C(=O)O)cn1; Bip(2'-Et-4'-OMe) = CCc1cc(OC)ccc1-c1ccc(C[C@H](N)C(=O)O)cc1; ξαMePhe(2-F) = CC(N)(Cc1ccccc1F)C(=O)O; ξαMeP = CC1(C(=O)O)CCCN1; Moc = COC(=O)*

compound | AUC, µM·h
CCc1cc(OC)ccc1-c1ccc(C[C@H](NC(=O)[C@H](CC(=O)O)NC(=O)[C@H](CO)NC(=O)[C@@H](NC(=O)C(C)(Cc2ccccc2F)NC(=O)[C@@H](NC(=O)CNC(=O)[C@H](CCC(=O)O)NC(=O)C2(C)CCCN2C(=O)[C@H](Cc2c[nH]cn2)NC(=O)OC)[C@@H](C)O)[C@@H](C)O)C(=O)N[C@@H](Cc2ccc(-c3ccccc3C)nc2)C(N)=O)cc1 (stereo partly shown) [SEQ ID NO: 139] (Moc-H[ξαMeP]EGT[ξαMePhe(2-F)]TSD[Bip(2'-Et-4'-OMe)][Ala(6-(2-MePh)pyridin-3-yl)]-NH2) | 1.6
